Ref: ChEMBL document CHEMBL1201862

System: CCRF-CEM
ASSAY EXPLANATION: NCI tumour cell line growth inhibition, 48 h
Active and inactive are the calls of the source. Cut-off read from the data, not from the text of the source: active = GI50 up to about 1.1 µM and inactive = higher.
Allowed answers: TRUE for active, FALSE for inactive

CN=[S+]([O-])(c1ccccc1)c1ccccc1 | FALSE
O=C(CC(=O)C1=CNc2ccccc2S1)C(=O)Nc1ccc(Cl)cc1 | FALSE
CCCN(CCC)C(=S)N/N=C/c1cccc(C)n1 | TRUE
CC1C(c2ccc(N(C)C)cc2)c2cc3c(cc2OC1N1CCCC1)OCO3 (stereo not given) | FALSE
Cn1nnc2c(C(N)=S)ncn2c1=O | FALSE
COCCOCCOCCOc1ccc(C(C#N)N(CCc2ccccc2)C(=O)c2cc(C(=O)N(CCc3ccccc3)C(C#N)c3ccc(OCCOCCOCCOC)cc3)cc(C(=O)N(CCc3ccccc3)C(C#N)c3ccc(OCCOCCOCCOC)cc3)c2)cc1 (stereo not given) | FALSE
CSCC[C@@H]1C(=O)N(C)[C@H](C(C)(C)C)N1C(=O)c1ccccc1 | FALSE
CC(=O)OCCOCCN1CCN(C2=C(Cl)C(=O)c3c(O)ccc(O)c3C2=O)CC1 | TRUE
CCCCCC(=O)OCC1(CO)C/C(=C\CC(C(C)C)C(C)C)C(=O)O1 (stereo not given) | FALSE

Asked: Assay result, entry O=C(O)CSc1ccc2nc3ccccc3c(O)c2c1 — outcome?
Given back: FALSE
